# Test system: MDA-N
# Protocol text: NCI tumour cell line growth inhibition, 48 h
Activity calls are given as the source filed them. No stated cut-off is given here; in the data, active = GI50 up to about 1.1 µM and inactive = higher.
Readout name: GI50

I have this compound here, Cc1ccc(/C=C2\Sc3scc(-c4ccccc4)[n+]3C2=O)cc1 , and I need its recorded GI50. 18 µM (inactive)

// query: C[C@@H]1CC[C@]2(C)C3(C)CC[C@]2(OC3=O)[C@@]12CC(c1ccoc1)OC2=O (stereo not given in full) 34.4 µM (inactive)

# repeat for N#Cc1c(-c2ccccc2)c(C=O)c(=O)n2c1[nH]c1ccccc12 84.3 µM (inactive)

Also O=C1C/C(=N/c2ccc(Cl)cc2)C(c2ccccc2)N1c1ccccc1 (stereo not given) ? 2.5 µM (inactive)

// query: Nc1cc(N2CCOCC2)nc(=O)n1-c1ccccc1 > 100 µM (inactive)
